Measured % of Pin1-HRP bound to plate-linked ligand, listed per entry.
molecular target: Pin1 WW domain (Pin1–HRP) (Homo sapiens); construct: purchased R&D Systems; experiment: ELEBA primary screening assay of the library; assay type: binding; details: separate plate of groups A and B (L2 control 85.0443); crude library members; DMSO = 100%; mean of N = 2
Where a SMILES comes first, the peptide text is derived from it. [ ]: non-standard residue; d: D form. The star is where a group is joined. pS = N[CH](COP(=O)(O)O)C(=O)O; Pyrrolidide = C1CCN(*)C1
# value in %; strip the unit string

Past entries and their recorded results:
>  <COMPOUND>
CC(=O)NC(COP(=O)(O)O)C(=O)N1CCCC1C(=O)NCCCN1CCCCC1C (mixture of isomers)

>  <UNIT ABBREVIATION>
%

>  <REPORTED RESULT>
108.888

$$$$
>  <COMPOUND>
CC(=O)NC(COP(=O)(O)O)C(=O)N1CCCC1C(=O)NCCc1ccc2ccccc2c1 (stereo not shown)

>  <UNIT ABBREVIATION>
%

>  <REPORTED RESULT>
113.792

$$$$
>  <COMPOUND>
O=C(/C=C/c1c[nH]cn1)N[C@@H](COP(=O)(O)O)C(=O)N1CCC[C@H]1C(=O)N1CCC(N2CCCCC2)CC1

>  <UNIT ABBREVIATION>
%

>  <REPORTED RESULT>
96.4764

$$$$
>  <COMPOUND>
CC(=O)NC(COP(=O)(O)O)C(=O)N1CCCC1C(=O)N1CCCC1 (stereo not shown) [1{1,a}] (Ac-[pS]-Pro-Pyrrolidide; configuration not given here)

>  <UNIT ABBREVIATION>
%

>  <REPORTED RESULT>
111.106

$$$$
>  <COMPOUND>
CC(=O)N[C@@H](COP(=O)(O)O)C(=O)N1CCC[C@H]1C(=O)N(C)CCc1ccccn1

>  <UNIT ABBREVIATION>
%

>  <REPORTED RESULT>
108.292

$$$$
>  <COMPOUND>
O=C(C=Cc1c[nH]cn1)NC(COP(=O)(O)O)C(=O)N1CCCC1C(=O)NCCc1c[nH]cn1 (stereo not shown)

>  <UNIT ABBREVIATION>
%

>  <REPORTED RESULT>
117.354

$$$$

# ---- query compound ----
Query the reported % of Pin1-HRP bound to plate-linked ligand for Pin1 WW domain (Pin1–HRP) (Homo sapiens); item: O=C(C=Cc1c[nH]cn1)NC(COP(=O)(O)O)C(=O)N1CCCC1C(=O)N1CCN(c2ncccn2)CC1 (stereo not shown)
93.9893

###

target: Pin1 WW domain (Pin1–HRP) (Homo sapiens); construct: purchased R&D Systems; assay: ELEBA primary screening assay of the library; format: binding; details: separate plate of groups A and B (L2 control 85.0443); crude library members; DMSO = 100%; mean of N = 2
Where a SMILES comes first, the peptide text is derived from it. [ ]: non-standard residue; d: D form. The star is where a group is joined. pS = N[C@@H](COP(=O)(O)O)C(=O)O; Piperidide = C1CCN(*)CC1
Listed here are compounds together with their documented % of Pin1-HRP bound to plate-linked ligand.

In the examples that follow, each entry is paired with its recorded % of Pin1-HRP bound to plate-linked ligand.
>  <COMPOUND>
CC(=O)N[C@@H](COP(=O)(O)O)C(=O)N1CCC[C@H]1C(=O)N1CCCCC1 [1{19,a}] (Ac-[pS]-Pro-Piperidide)

>  <REPORTED RESULT>
116.14%

$$$$
>  <COMPOUND>
O=C(C=Cc1c[nH]cn1)NC(COP(=O)(O)O)C(=O)N1CCCC1C(=O)NCCc1ccc2ccccc2c1 (centres unmarked)

>  <REPORTED RESULT>
77.3223%

$$$$
>  <COMPOUND>
CC(=O)N[C@@H](COP(=O)(O)O)C(=O)N1CCC[C@H]1C(=O)NCCCCCCN

>  <REPORTED RESULT>
74.9059%

$$$$

Sample CC(=O)NC(COP(=O)(O)O)C(=O)N1CCCC1C(=O)NCCc1c[nH]cn1 (centres unmarked) — what was its % of Pin1-HRP bound to plate-linked ligand?
109.367%

Give its % of Pin1-HRP bound to plate-linked ligand value. Item: O=C(C=Cc1c[nH]cn1)NC(COP(=O)(O)O)C(=O)N1CCCC1C(=O)N1CCCC1 (centres unmarked)
117.035%

Would you mind telling me what % of Pin1-HRP bound to plate-linked ligand value was observed for O=C(C=Cc1c[nH]cn1)NC(COP(=O)(O)O)C(=O)N1CCCC1C(=O)NCCc1ccc(O)cc1 (centres unmarked) ?
124.444%

Given the compound CC(=O)NC(COP(=O)(O)O)C(=O)N1CCCC1C(=O)N(C)CC(C)c1ccccc1 (mixture of isomers) , what is its reported % of Pin1-HRP bound to plate-linked ligand?
118.382%

# input compound: O=C(/C=C/c1c[nH]cn1)N[C@@H](COP(=O)(O)O)C(=O)N1CCC[C@H]1C(=O)N1CCOCC1 ; wanted: its % of Pin1-HRP bound to plate-linked ligand
76.1089%

Dear colleague, I am looking for the recorded % of Pin1-HRP bound to plate-linked ligand of the following compound: CC(=O)NC(COP(=O)(O)O)C(=O)N1CCCC1C(=O)NCCCn1ccnc1 (centres unmarked)
109.194%

Would you kindly share the measured % of Pin1-HRP bound to plate-linked ligand for CCN(CC)CCCCN(C)C(=O)[C@@H]1CCCN1C(=O)[C@H](COP(=O)(O)O)NC(=O)/C=C/c1c[nH]cn1 ?
108.279%

###

target: Pin1 WW domain (full-length 15N-Pin1) (Homo sapiens)
Listed here: items and their measured Kd.
Give just the number in µM; leave the unit off.

Study these solved cases before continuing.
>  <COMPOUND>
CC(C)(Oc1ccc(Cl)cc1)C(=O)NC(COP(=O)(O)O)C(=O)N1CCCC1C(=O)Nc1ccc2[nH]ncc2c1 (stereo not drawn)

>  <MEASURED QUANTITY>
Kd

>  <REPORTED RESULT>
208

$$$$
>  <COMPOUND>
O=C(C=CSc1ccccc1)NC(COP(=O)(O)O)C(=O)N1CCCC1C(=O)Nc1ccc2[nH]ncc2c1 (stereo not drawn) [cis-1{2, d}]

>  <MEASURED QUANTITY>
Kd

>  <REPORTED RESULT>
95

$$$$

Proceeding to the next compound to report its Kd.
Which Kd is reported for this compound? O=C(C=CSc1ccccc1)NC(COP(=O)(O)O)C(=O)N1CCCC1C(=O)Nc1ccc2[nH]ncc2c1 (stereo not drawn) [trans-1{2, d}]
214

###

molecular target: Pin1 WW domain (Pin1–HRP) (Homo sapiens, UniProt Q13526); construct: purchased R&D Systems; assay: ELEBA primary screening assay of the library; assay type: binding; settings: separate plate of groups A and B (L2 control 85.0443); crude library members; DMSO = 100%; mean of N = 2
Sequence (Q13526 whole entry, the tested form may be a part): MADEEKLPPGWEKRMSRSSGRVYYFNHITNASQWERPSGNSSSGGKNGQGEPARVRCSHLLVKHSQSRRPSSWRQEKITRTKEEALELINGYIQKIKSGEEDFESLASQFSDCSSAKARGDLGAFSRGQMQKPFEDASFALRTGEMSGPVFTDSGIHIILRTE
Where a SMILES comes first, the peptide text is derived from it. [ ]: non-standard residue; d: D form. The star is where a group is joined. pS = N[CH](COP(=O)(O)O)C(=O)O; Agmatine = N=C(N)NCCCCN*; Morpholide = C1CN(*)CCO1
In this section, each of the compounds is paired with its reported % of Pin1-HRP bound to plate-linked ligand.
Express your answer in %, writing the number without its unit.

As a guide, the following entries are already answered.
>  <COMPOUND>
CCN(CC)CCCCN(C)C(=O)[C@@H]1CCCN1C(=O)[C@H](COP(=O)(O)O)NC(C)=O

>  <UNIT ABBREVIATION>
%

>  <REPORTED RESULT>
99.5048

$$$$
>  <COMPOUND>
CC(=O)NC(COP(=O)(O)O)C(=O)N1CCCC1C(=O)NCCCCNC(=N)N (stereo not shown) [1{16,a}] (Ac-[pS]-Pro-Agmatine; configuration not given here)

>  <UNIT ABBREVIATION>
%

>  <REPORTED RESULT>
112.945

$$$$
>  <COMPOUND>
COC(=O)C=C(C)NC(=O)[C@@H]1CCCN1C(=O)[C@H](COP(=O)(O)O)NC(C)=O

>  <UNIT ABBREVIATION>
%

>  <REPORTED RESULT>
116.564

$$$$

Give the reported % of Pin1-HRP bound to plate-linked ligand for COC(=O)C=C(C)NC(=O)C1CCCN1C(=O)C(COP(=O)(O)O)NC(=O)C=Cc1c[nH]cn1 (stereo not shown) (system: Pin1 WW domain (Pin1–HRP) (Homo sapiens, UniProt Q13526)).
111.464

Which measured % of Pin1-HRP bound to plate-linked ligand belongs to O=C(C=Cc1c[nH]cn1)NC(COP(=O)(O)O)C(=O)N1CCCC1C(=O)Nc1ccc2[nH]ncc2c1 (stereo not shown) , tested on Pin1 WW domain (Pin1–HRP) (Homo sapiens, UniProt Q13526)?
113.209

Please provide the recorded % of Pin1-HRP bound to plate-linked ligand for CN(CCc1ccccn1)C(=O)C1CCCN1C(=O)C(COP(=O)(O)O)NC(=O)C=Cc1c[nH]cn1 (stereo not shown) , tested on Pin1 WW domain (Pin1–HRP) (Homo sapiens, UniProt Q13526).
113.92

What value of % of Pin1-HRP bound to plate-linked ligand on Pin1 WW domain (Pin1–HRP) (Homo sapiens, UniProt Q13526) does CC(=O)N[C@@H](COP(=O)(O)O)C(=O)N1CCC[C@H]1C(=O)N1CCOCC1 [1{20,a}] (Ac-[pS]-Pro-Morpholide) have?
115.484
